target_or_system: Human immunodeficiency virus type 1 integrase (Human immunodeficiency virus 1, UniProt Q7ZJM1, A128T)
Sequence (Q7ZJM1 entry or part of it A128T): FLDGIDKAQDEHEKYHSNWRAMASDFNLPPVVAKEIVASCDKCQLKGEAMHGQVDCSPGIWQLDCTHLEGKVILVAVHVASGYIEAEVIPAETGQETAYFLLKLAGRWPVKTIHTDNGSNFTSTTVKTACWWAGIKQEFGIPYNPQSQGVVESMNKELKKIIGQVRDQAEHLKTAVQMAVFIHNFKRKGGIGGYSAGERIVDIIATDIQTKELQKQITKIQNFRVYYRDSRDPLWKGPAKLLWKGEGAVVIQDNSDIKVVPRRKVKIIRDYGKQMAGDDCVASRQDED
assay: Inhibition of recombinant full length C-terminal His-tagged HIV1 integrase A128T mutant expressed in Escherichia coli BL21(DE3) cells assessed as reduction in LEDGF/p75 independent 3' processing activity using 32P-labeled blunt ended 21-mer DNA as substrate preincubated for 30 mins followed by substrate addition measured after 1 hr by […]
pIC50: −log10 of the molar value.
parameter: pIC50

- Cn1c(C(OC(C)(C)C)C(=O)O)c(-c2ccc3c(c2)CCCO3)c2ccccc21 (stereo unspecified): 6.05

====

target_or_system: Human immunodeficiency virus type 1 integrase (Human immunodeficiency virus 1, UniProt Q7ZJM1)
Sequence (Q7ZJM1 whole entry): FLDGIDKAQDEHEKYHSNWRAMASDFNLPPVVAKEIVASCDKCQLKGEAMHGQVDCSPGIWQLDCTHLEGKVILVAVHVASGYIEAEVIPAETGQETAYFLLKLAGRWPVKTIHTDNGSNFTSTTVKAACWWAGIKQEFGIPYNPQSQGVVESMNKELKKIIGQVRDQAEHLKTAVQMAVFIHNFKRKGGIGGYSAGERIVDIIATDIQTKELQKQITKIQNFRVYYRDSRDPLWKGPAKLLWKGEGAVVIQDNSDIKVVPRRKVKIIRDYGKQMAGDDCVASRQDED
assay: Inhibition of C-terminal FLAG-tagged LEDGF/p75 binding to recombinant full length N-terminal His-tagged HIV1 integrase expressed in Escherichia coli BL21(DE3) cells preincubated with enzyme for 30 mins followed by LEDGF/p75 addition by HTRF assay
pIC50: −log10 of the molar value.
parameter: pIC50

- Cn1c(C(OC(C)(C)C)C(=O)O)c(-c2ccc3c(c2)CCCO3)c2ccccc21 (stereo unspecified): 4.54

// provenance: ChEMBL document CHEMBL4431384
